Task for the reader: assign each of the following molecules its reported logP.
test: Partition coefficient (logP); assay type: physicochemical; settings: octanol/water
Just the number.

Request: Please give the documented logP of CCC(=O)Oc1c(OC)c(OC)c(OC(=O)CC)c2cc(C)ccc12
Response: 3.9

Request: Output logP of COc1ccc2c(OC(C)=O)c(OC)c(OC)c(OC(C)=O)c2c1
Response: 2.39

Request: Please give the documented logP of CCOc1c(OCC)c(OC(=O)C(C)(C)C)c2cc(Cl)ccc2c1OC(=O)C(C)(C)C
Response: 7.4

Request: Provide only the value of recorded logP for CCOc1c(OCC)c(OC(=O)CC)c2cc(Cl)ccc2c1OC(=O)CC
Response: 5.2

Request: # return recorded logP for entry O=C(Oc1c(Oc2ccccc2)c(Oc2ccccc2)c(OC(=O)c2ccccc2)c2cc(Cl)ccc12)c1ccccc1
Response: 8.7

Request: Report logP, nothing else, for this molecule: CCC(=O)Oc1c(OC)c(OC)c(OC(=O)CC)c2c(C)cccc12
Response: 3.9

Request: Fill in reported logP for this entry: COc1c(OC)c(OC(=O)C(C)C)c2cc(Cl)ccc2c1OC(=O)C(C)C
Response: 5.4

Request: Indicate the recorded logP value for this molecule: COc1c(OC)c(OC(C)=O)c2cc(F)ccc2c1OC(C)=O
Response: 2.75

Request: Specify measured logP for CC(=O)Oc1c(OC(C)C)c(OC(C)C)c(OC(C)=O)c2cc(Cl)ccc12 .
Response: 4.6

Request: Output measured logP for this item: COc1c(OC)c(OC(C)=O)c2cc(C)ccc2c1OC(C)=O
Response: 2.86

Request: Given CCCC(=O)Oc1c(OC)c(OC)c(OC(=O)CCC)c2cc(C)c(C)cc12 , respond with its logP.
Response: 5.4

Request: // fetch logP given entry COc1c(OC)c(OC(=O)C(C)C)c2c(C)cccc2c1OC(=O)C(C)C
Response: 5

Request: Quick one: give measured logP for COc1c(OC)c(OC(=O)C(C)(C)C)c2c(C)cccc2c1OC(=O)C(C)(C)C
Response: 6.1

Request: Output measured logP for this item: COc1c(OC)c(OC(C)=O)c2cc(C)c(C)cc2c1OC(C)=O
Response: 3.14

Request: Provide one value: measured logP of O=C(Oc1c(Oc2ccccc2)c(Oc2ccccc2)c(OC(=O)c2ccccc2)c2ccccc12)c1ccccc1
Response: 7.9

Request: Kindly indicate its recorded logP. Item: CC(=O)Oc1c(Oc2ccccc2)c(Oc2ccccc2)c(OC(C)=O)c2cc(Cl)ccc12
Response: 5.6

Request: Give the reported logP for this molecule. COc1c(OC)c(OC(=O)C(C)(C)C)c2ccccc2c1OC(=O)C(C)(C)C
Response: 5.69

Request: Using known records, supply logP for CCCC(=O)Oc1c(OC)c(OC)c(OC(=O)CCC)c2cc(Cl)ccc12
Response: 5.5

Request: Please supply the value of reported logP for the item COc1c(OC)c(OC(C)=O)c2c(Cl)cccc2c1OC(C)=O
Response: 3.16

Request: Please supply the value of reported logP for the item CC(=O)Oc1c(Oc2ccccc2)c(Oc2ccccc2)c(OC(C)=O)c2ccccc12
Response: 4.8

Request: Provide logP value for the following molecule: COc1c(OC)c(OC(C)=O)c2cc(Cl)ccc2c1OC(C)=O [LONAPALENE]
Response: 3.26

* * *

assay: Statistical significance (p value) compared to positive control by Students t-test; assay type: ADME
result-type: Significance

As a guide, the following entries are already answered.
CC(=O)Oc1c(OC(C)C)c(OC(C)C)c(OC(C)=O)c2cc(Cl)ccc12 :: <= 0.001
CC(C)Oc1c(OC(C)C)c(OC(=O)C(C)(C)C)c2cc(Cl)ccc2c1OC(=O)C(C)(C)C :: <= 0.001
CCCCOc1c(OCCCC)c(OC(C)=O)c2cc(Cl)ccc2c1OC(C)=O :: <= 0.01
CCOc1c(OCC)c(OC(=O)CC)c2cc(Cl)ccc2c1OC(=O)CC :: <= 0.001
COc1c(OC)c(OC(C)=O)c2cc(Br)ccc2c1OC(C)=O :: <= 0.001
COc1c(OC)c(OC(=O)C(C)C)c2ccccc2c1OC(=O)C(C)C :: <= 0.001
CCC(=O)Oc1c(OC)c(OC)c(OC(=O)CC)c2cc(Cl)ccc12 :: <= 0.001
CCCOc1c(OCCC)c(OC(=O)C(C)C)c2cc(Cl)ccc2c1OC(=O)C(C)C :: <= 0.01

Now take the following compound into account.
Request: Output measured Significance for this item: CCC(=O)Oc1c(OC)c(OC)c(OC(=O)CC)c2c(C)cccc12
Response: <= 0.01

* * *

assay: Statistical significance (p value) compared to positive control by Students t-test; type: ADME; conditions: read-out: Significance
result-type: Significance

Request: State its Significance: COc1c(OC)c(OC(C)=O)c2c(C)cccc2c1OC(C)=O
Response: < 0.001

* * *

assay: Partition coefficient (logP); format: physicochemical; details: octanol/water
result-type: logP
Note: the reply should be a number with no unit written.

Request: Could you please provide reported logP for CCC(=O)Oc1c(Oc2ccccc2)c(Oc2ccccc2)c(OC(=O)CC)c2cc(Cl)ccc12 ? Thanks!
Response: 6.6

Request: Query logP for CC(C)(C)C(=O)Oc1c(Oc2ccccc2)c(Oc2ccccc2)c(OC(=O)C(C)(C)C)c2cc(Cl)ccc12
Response: 8.7

Request: Return logP (reported value) for this compound: COc1c(OC)c(OC(=O)C(C)C)c2cc(C)c(C)cc2c1OC(=O)C(C)C
Response: 5.3

Request: Fill in reported logP for this entry: CCCC(=O)Oc1c(OC)c(OC)c(OC(=O)CCC)c2ccccc12
Response: 4.64

Request: Note down logP recorded for CCC(=O)Oc1c(OC)c(OC)c(OC(=O)CC)c2cc(OC)ccc12
Response: 3.28

Request: Output logP of CC(C)Oc1c(OC(C)C)c(OC(=O)C(C)(C)C)c2cc(Cl)ccc2c1OC(=O)C(C)(C)C
Response: 7.9

Request: For the compound CCC(=O)Oc1c(OC)c(OC)c(OC(=O)CC)c2cc(Cl)ccc12 , give its measured logP value.
Response: 4.3

Request: State its logP: CCC(=O)Oc1c(OC)c(OC)c(OC(=O)CC)c2c(OC)cccc12
Response: 3.44

Request: Given the compound CCC(=O)Oc1c(OC)c(OC)c(OC(=O)CC)c2cc(C)c(C)cc12 , write its reported logP.
Response: 4.2

Request: Given CCCOc1c(OCCC)c(OC(=O)CCC)c2cc(Cl)ccc2c1OC(=O)CCC , respond with its logP.
Response: 7.6

Request: Consider the compound CCC(=O)Oc1c(OC)c(OC)c(OC(=O)CC)c2ccccc12 and give its recorded logP.
Response: 3.44

Request: // fetch logP given entry CCC(=O)Oc1c(OC(C)C)c(OC(C)C)c(OC(=O)CC)c2cc(Cl)ccc12
Response: 5.8

Request: Quote logP reported for COc1c(OC)c(OC(C)=O)c2cc(Br)ccc2c1OC(C)=O please.
Response: 3.39

Request: Return reported logP. Input compound: COc1c(OC)c(OC(=O)C(C)(C)C)c2c(Cl)cccc2c1OC(=O)C(C)(C)C
Response: 6.1

Request: Please look at this compound and report its logP: COc1c(OC)c(OC(C)=O)c2cc(C#N)ccc2c1OC(C)=O
Response: 2.28

Request: Provide logP value for the following compound: COc1c(OC)c(OC(=O)C(C)(C)C)c2cc(Cl)ccc2c1OC(=O)C(C)(C)C
Response: 6.6

Request: Please look at this compound and report its logP: COc1c(OC)c(OC(C)=O)c2c(OC)cccc2c1OC(C)=O
Response: 2.43

Request: Name the recorded logP of the item COc1c(OC)c(OC(=O)C(C)(C)C)c2c(OC)cccc2c1OC(=O)C(C)(C)C in your answer.
Response: 5.6

Request: Supply reported logP belonging to this compound: COc1c(OC)c(OC(C)=O)c2c(C#N)cccc2c1OC(C)=O
Response: 2.51

Request: Supply reported logP belonging to this compound: CCCOc1c(OCCC)c(OC(=O)C(C)C)c2cc(Cl)ccc2c1OC(=O)C(C)C
Response: 7.5

Request: Quickly give me recorded logP for CCCOc1c(OCCC)c(OC(C)=O)c2cc(Cl)ccc2c1OC(C)=O
Response: 5.2

Request: Give recorded logP. COc1c(OC)c(OC(C)=O)c2c(Sc3ccccc3)cccc2c1OC(C)=O
Response: 4.2

Request: Consider the compound CCCOc1c(OCCC)c(OC(=O)C(C)(C)C)c2cc(Cl)ccc2c1OC(=O)C(C)(C)C and give its recorded logP.
Response: 8.5

Request: Specify measured logP for COc1c(OC)c(OC(=O)C(C)C)c2ccccc2c1OC(=O)C(C)C .
Response: 4.61

Request: Give the measured logP for COc1c(OC)c(OC(=O)C(C)(C)C)c2cc(C)ccc2c1OC(=O)C(C)(C)C
Response: 6.1

Request: Provide only the value of recorded logP for COc1c(OC)c(OC(C)=O)c2ccccc2c1OC(C)=O
Response: 2.39

Request: Using the record for CCCC(=O)Oc1c(Oc2ccccc2)c(Oc2ccccc2)c(OC(=O)CCC)c2cc(Cl)ccc12 , state its measured logP.
Response: 7.7

Request: Tell me its logP given CC(C)C(=O)Oc1c(Oc2ccccc2)c(Oc2ccccc2)c(OC(=O)C(C)C)c2cc(Cl)ccc12 as the entry.
Response: 7.7

Request: Entry COc1c(OC)c(OC(=O)c2ccccc2)c2cc(Cl)ccc2c1OC(=O)c1ccccc1 needs its logP filled in; supply it.
Response: 6.7

FYI, the data here is from ChEMBL document CHEMBL1123347.
